- protocol: qHTS assay to identify small molecule antagonists of the thyroid receptor (TR) signaling pathway (AID 743065); also: nearly all actives have a fitted effect of over 55% in size; also: potency is read from the fitted curve at half-maximal effect
- reported_conditions: GH3.TRE-Luc, T3-stimulated luciferase inhibition, 23.5 h; series mostly up to 70.3 µM
Results filed as inconclusive are left out. The source made the active and inactive calls. Calls follow the shape of the dose curve; as a rule, active = well fitted inhibition curve with a large enough effect in the repeat runs; inconclusive = weak or mixed curves; inactive = no such curve, though single readings can be large or run the other way.
assay_readout: Potency

Example molecules with recorded Potency:
CN(C)CCCN1c2ccccc2CCc2ccccc21 :: 23.7 µM (active)
O=Cc1ccc(F)cc1 :: inactive
C=CC(=O)OCCC#N :: 54.8 µM (active)
NC1(c2ccc(-c3nc4ccn5c(=O)[nH]nc5c4cc3-c3ccccc3)cc2)CCC1 :: 13.3 µM (active)
C=CC(=O)OCC(O)COc1ccccc1 (stereo not drawn) :: 48.6 µM (active)
CNCC[C@H](Oc1cccc2ccccc12)c1cccs1 :: 7.5 µM (active)
CN(C)CCCN1c2ccccc2Sc2ccc(C(F)(F)F)cc21 :: 10.6 µM (active)
CN1CCN(C2Cc3ccccc3Sc3ccc(Cl)cc32)CC1 (stereo not drawn) :: 9.44 µM (active)

Query block: Identify measured Potency corresponding to `O=C1c2c(O)ccc(O)c2C(=O)c2c(NCCNCCO)ccc(NCCNCCO)c21`
Result block: 0.507 µM (active)

Query block: In one line, give reported Potency of the entry `CCCCCCCC/C=C/CCCOC(C)=O` .
Result block: inactive

Query block: For the molecule Clc1ccc(C(Cn2ccnc2)OCc2c(Cl)cccc2Cl)c(Cl)c1 (stereo not drawn) , report Potency.
Result block: 11.4 µM (active)

Query block: Determine from records and report Potency for `Cc1ccc(N)cc1O`
Result block: inactive

Query block: Please look at this molecule and report its Potency: `CCOC(=O)C1=C(C)NC(C)=C(C(=O)OCC)C1c1ccccc1/C=C/C(=O)OC(C)(C)C`
Result block: 10.6 µM (active)

Query block: Specify Potency for `CCCCCCCCCC(=O)N(C)C` and stop.
Result block: inactive

Query block: Note down Potency recorded for `NC(=O)C(=O)N/N=C/c1ccc([N+](=O)[O-])o1`
Result block: 21.1 µM (active)

Query block: Output Potency of `C[C@@]12C(=O)OC(=O)[C@]1(C)C1CCC2O1`
Result block: 2.02 µM (active)

Query block: Specify measured Potency for `O=C(O)Cc1ccc(OCCNC[C@H](O)c2ccccc2)cc1` .
Result block: inactive

Query block: Provide only the value of recorded Potency for `O[C@@H](c1cc(C(F)(F)F)nc2c(C(F)(F)F)cccc12)[C@H]1CCCCN1`
Result block: 5.96 µM (active)

Query block: Please report Potency for the following molecule: `O=C1NCCN1CCN1CCC(c2cn(-c3ccc(F)cc3)c3ccc(Cl)cc23)CC1`
Result block: 5.96 µM (active)

Query block: Identify measured Potency corresponding to `CC(C)(C)c1cc(/C=C2\SC(=N)NC2=O)cc(C(C)(C)C)c1O`
Result block: 13.7 µM (active)

Query block: Find the measured Potency of `COc1ccc2sc(C(=O)Nc3nnn[nH]3)c(OC(C)C)c2c1` and report it.
Result block: 6.09 µM (active)

Query block: Look up Potency of `COc1cc(C=C2CCC/C(=C\c3ccc(O)c(OC)c3)C2=O)ccc1O` and report it.
Result block: 6.68 µM (active)

Query block: Fill in Potency for record `O=C1C=CC(=O)N1c1ccccc1`
Result block: 4.86 µM (active)

====

- protocol: qHTS assay to identify small molecule agonists of the constitutive androstane receptor (CAR) signaling pathway - cell viability counter screen (AID 1224836); also: nearly all actives have a fitted effect of over 45% in size
- reported_conditions: HepG2-CYP2B6-hCAR viability, CellTiter-Fluor, 23 h, PK11195 added to every well; series mostly up to 92.4 µM
Records with an inconclusive call do not appear. Activity calls are given as the source filed them. The call rests on the fitted dose curve; in most records, active means well fitted cell-killing curve with a large enough effect in the repeat runs; inconclusive means weak or mixed curves, or effect the other way; inactive means flat fitted curve, though single readings scatter.
assay_readout: outcome

Clc1ccccc1CN1CCc2sccc2C1 :: inactive
C=CC(C)(CCC=C(C)C)OC(=O)/C=C/c1ccccc1 (centres undefined) :: inactive
CC(C)=CCCC(C)CCOC(=O)C(C)C (centres undefined) :: inactive
CCCC(CC)CCCCCCCN (centres undefined) :: inactive

====

- protocol: A CellTox Green Cytotoxicity Assay to monitor cytotoxicity in HepG2 cells - 24 hour (AID 1224878); also: nearly all actives have a fitted effect of over 45% in size
- reported_conditions: CellTox Green fluorescence; series mostly up to 76.8 µM
Inconclusive results are not listed. Activity calls are given as the source filed them. Calls follow the shape of the dose curve; as a rule, active = well fitted activation curve with a large enough effect in the repeat runs; inconclusive = weak or mixed curves; inactive = flat fitted curve, though single readings scatter.
Your reply should match one of these outcome classes. TRUE (active), FALSE (inactive)

COc1cccc(O)c1 :: FALSE
CC(C(O)c1ccccc1)N(C)CCOC(c1ccccc1)c1ccccc1 (stereo not given) :: TRUE
CC=O :: TRUE
CO[Si](CCC1CCC2OC2C1)(OC)OC (stereo not given) :: FALSE
C/C=C/C(=O)Oc1c(CCCCCC(C)C)cc([N+](=O)[O-])cc1[N+](=O)[O-] :: TRUE

Query block: Recorded test outcome, item C=CC(=O)OCC(O)COc1ccccc1 (stereo not given)
Result block: FALSE

Query block: Test call for this compound, please: `Cc1cc(Nc2ccc(O)cc2)ccc1N`
Result block: FALSE

Query block: Given `C=CCCCCCCC=C` , state the outcome it received in this test.
Result block: FALSE

Query block: Call for entry `CC(C)(C)CC(C)(C)c1ccccc1O` :
Result block: TRUE

Query block: Assay result, entry `O=CC1CC1` — outcome?
Result block: FALSE

====

- protocol: qHTS RealTime-Glo MT Cell Viability Assay in HEK293 cells - 16 hour (AID 1224872); also: nearly all actives have a fitted effect of over 50% in size; also: potency is read from the fitted curve at half-maximal effect
- reported_conditions: RealTime-Glo luminescence; series mostly up to 76.8 µM
Records with an inconclusive call do not appear. The source made the active and inactive calls. Calls come from the whole dose curve; as a rule, active = well fitted cell-killing curve with a large enough effect in the repeat runs; inconclusive = weak or mixed curves, or effect the other way; inactive = flat fitted curve, though single readings scatter.
assay_readout: Potency

Clc1nc2ccccc2s1 :: inactive
CO[C@H]1C=CO[C@@]2(C)Oc3c(C)c(O)c4c(O)c(cc(O)c4c3C2=O)NC(=O)/C(C)=C\C=C/[C@H](C)[C@H](O)[C@@H](C)[C@@H](O)[C@@H](C)[C@H](OC(C)=O)[C@@H]1C :: inactive
CC(=O)C=O :: inactive
NC(=O)C(=O)N/N=C/c1ccc([N+](=O)[O-])o1 :: inactive
CCCCCCCCCCc1ccccc1 :: inactive

Query block: Provide measured Potency value, entry: `Cc1cc(Nc2ccc(O)cc2)ccc1N`
Result block: 24.4 µM (active)

Query block: Note Potency for the compound shown: C1CC(COCC2CO2)CCC1COCC1CO1 (stereo not given)
Result block: inactive

Query block: Name the recorded Potency of the compound listed here: `Cc1cccc(C)c1NC(=O)CN1CCN(CCCC(c2ccc(F)cc2)c2ccc(F)cc2)CC1`
Result block: 10.7 µM (active)

====

- protocol: qHTS RealTime-Glo MT Cell Viability Assay in HepG2 cells - 16 hour (AID 1224885); also: nearly all actives have a fitted effect of over 50% in size
- reported_conditions: RealTime-Glo luminescence; series mostly up to 76.8 µM
Results filed as inconclusive are left out. Calls of active or inactive are those of the source. Calls follow the shape of the dose curve; as a rule, active = well fitted cell-killing curve with a large enough effect in the repeat runs; inconclusive = weak or mixed curves; inactive = flat fitted curve, though single readings scatter.
Parameter call: string, one of active, inactive

Record excerpt, results attached:
CCCCCCCC/C=C/CCCOC(C)=O :: inactive
CCN(CC)CCNc1ccc(CO)c2sc3ccccc3c(=O)c12 :: active
Cc1cncc(C)c1 :: inactive
COC(=O)[C@]1(C)CCC[C@@]2(C)[C@H]1CC=C1C=C(C(C)C)CC[C@@H]12 :: inactive
O=C1NCCN1CCN1CCC(c2cn(-c3ccc(F)cc3)c3ccc(Cl)cc23)CC1 :: active

Query block: Per the records of this test, what outcome belongs to `COC(=O)CC#N` ?
Result block: inactive

Query block: Please let me know the test result on file for `CC=O` .
Result block: active

Query block: Record request — test call for `CCN(CC)c1ccc(N)cc1`
Result block: active

Query block: State the result this test recorded for `C=CC(=C)CCC=C(C)C` .
Result block: inactive

Query block: Give the logged outcome of this assay for the following molecule: `CCCCOCC`
Result block: inactive

Query block: For `CCc1cccc(CC)c1NC(=O)C(=O)O` , what call appears in the results of this test?
Result block: inactive

====

- protocol: qHTS assay for small molecule agonists of the p53 signaling pathway (AID 651631); also: nearly all actives have a fitted effect of over 15% in size
- reported_conditions: HCT-116 p53RE-bla reporter, beta-lactamase FRET ratio, 16 h; series mostly up to 73.3 µM
Inconclusive results are not listed. The source made the active and inactive calls. The call rests on the fitted dose curve.
# valid calls are yes (active), no (inactive); nothing else

Solved cases (3 shown):
CCCCCCCCCCCC(=O)N(CC)CC :: no
CCCCCCCCCCCCCCCC :: no
CCN(CC)CCNc1ccc(CO)c2sc3ccccc3c(=O)c12 :: yes

Query block: What call does the record list for `Cc1c(C(=O)O)cccc1[N+](=O)[O-]` ?
Result block: no

Query block: Test call for this compound, please: `CC1(C)C(=O)N(Br)C(=O)N1Br`
Result block: no

Query block: # lookup: test call for `C=CCCCCCCC=C`
Result block: no

Query block: Which result was noted for this compound in the test: `O=C(O)CC(=O)O`
Result block: no

Query block: Recorded test outcome, item `CCC(=O)OCCc1ccccc1`
Result block: no

Query block: Short answer needed: outcome of this test for `CO[C@H]1C=CO[C@@]2(C)Oc3c(C)c(O)c4c(O)c(cc(O)c4c3C2=O)NC(=O)/C(C)=C\C=C/[C@H](C)[C@H](O)[C@@H](C)[C@@H](O)[C@@H](C)[C@H](OC(C)=O)[C@@H]1C` ?
Result block: no

Query block: Please indicate how the test categorized C[n+]1c2cc(N)ccc2cc2ccc(N)cc21 (tested in a mixture with another compound) .
Result block: yes
